Values compiled from PubChem BioAssay (NCI).

Test system: NCI-H226 lung
Experiment: NCI-60 one-dose screen, 48 h
Conditions: 10 µM unless noted
Compounds without any hit were thinned out: in the full panel of roughly 83,000, 20% have a hit. The source made the active and inactive calls. Rule for the calls: active = growth percent below 10; inactive = the rest.
Labels: active, inactive

[[record]]
molecule = "O=C1c2cccc3cccc(c23)C(=O)N1CCCCN1CCN(CCCCOc2ccc(-c3nc4ccc(N5CCOCC5)cc4[nH]3)cc2)CC1"
category = "inactive"

[[record]]
molecule = "C#Cc1cccc(NC(=O)c2ccccc2NC(=O)C=C)c1"
category = "inactive"

[[record]]
molecule = "O=C(N/N=C/c1ccccc1O)c1ccccc1Nc1ccnc(C(F)(F)F)c1"
category = "active"

[[record]]
molecule = "Cc1cc(N2CCCCC2)nc(NC2CCCC(Nc3ccnc4cc(Cl)ccc34)C2)n1 (stereo not given)"
category = "active"

[[record]]
molecule = "COc1cc(-c2nn(-c3ccc(C(=O)O)cc3)cc2C(=O)O)ccc1O"
category = "inactive"

[[record]]
molecule = "O=C1CSC(=S)N1CCc1ccc(O)cc1"
category = "inactive"

[[record]]
molecule = "COc1ccc(-c2nn(-c3ccc(Cl)cc3)cc2-c2nc3ccccc3[nH]2)cc1"
category = "inactive"

[[record]]
molecule = "CCNC(=O)Oc1ccc(/C(=C(\\C)c2ccc(Cl)cc2)c2ccc(OCCN3CCCCC3)cc2)cc1"
category = "inactive"

[[record]]
molecule = "Oc1cccc(-c2nc(N3CCOCC3)c3c4c(sc3n2)CCCC4)c1"
category = "inactive"

[[record]]
molecule = "COc1ccc(-n2nc(C)c3c(Oc4ccc(NC(=O)Nc5c(Cl)cccc5Cl)cc4)ncnc32)cc1"
category = "inactive"

[[record]]
molecule = "COc1cc2c(cc1-c1c(C)noc1C)ncc1nc(C3CCCC3)n([C@H](C)COC(F)F)c12"
category = "inactive"

[[record]]
molecule = "COc1cc2nc(N3CCCC3)nc(Nc3ccccc3)c2cc1OC"
category = "inactive"

[[record]]
molecule = "CCOC(=O)c1c(CN2CCN(C)CC2)nc2ccc(Cl)cc2c1-c1ccccc1"
category = "inactive"

[[record]]
molecule = "Cn1ccnc1C(=O)/C=C/c1ccccc1"
category = "inactive"

[[record]]
molecule = "CN1CCN(c2nc(NCCCNc3ccnc4cc(Cl)ccc34)c3ccccc3n2)CC1"
category = "inactive"

[[record]]
molecule = "O=C1Nc2cc(-c3ccc(O)cc3)ccc2/C1=C/c1ccc[nH]1"
category = "active"

[[record]]
molecule = "CN(C)[C@@H]1C(=O)C(C(=O)NCc2nc3[nH]cnc(=S)c3[nH]2)=C(O)[C@@]2(O)C(=O)C3=C(O)c4c(O)cccc4[C@@](C)(O)[C@H]3C[C@@H]12"
category = "inactive"

[[record]]
molecule = "O=S(=O)(Nc1ccc(I)cc1F)c1ccc(-c2cnc(C3CC3)o2)cc1"
category = "inactive"

[[record]]
molecule = "N#C/C(=C\\c1ccc(-c2ccc(Cl)c(Cl)c2)o1)c1nc(-c2ccco2)cs1"
category = "inactive"

[[record]]
molecule = "O=S(=O)(Nc1ccc(OC(F)F)cc1)c1ccc(-c2cnc(C3CC3)o2)cc1"
category = "inactive"

